organism: Rattus norvegicus; assay: Open TG-GATES - Regimen: Single; format: toxicity, organism-based, Sprague-Dawley; parameters: regimen Single, gender Male, age 6 weeks; details: in vivo, po, 0 mg/kg, 24 h, tissue Kidney, route gavage, dose level Control
KIDNEY_L reference
Just the number in g, nothing appended.

Study these solved cases before continuing.
compound	unit-spec	experimental-value
CN(C)CCCN1c2ccccc2Sc2ccc(Cl)cc21	g	1
COc1cc2ncnc(Nc3ccc(F)c(Cl)c3)c2cc1OCCCN1CCOCC1	g	1
COc1ccc([C@@H]2Sc3ccccc3N(CCN(C)C)C(=O)[C@@H]2OC(C)=O)cc1	g	0.9
Nc1ccc(Cc2ccc(N)cc2)cc1	g	0.9

For this compound ( CCCCNC(=O)NS(=O)(=O)c1ccc(C)cc1 [TOLBUTAMIDE] ), measured KIDNEY_L is 1

compound CCO , KIDNEY_L observed: 1
